Biological target: UniProtKB P16473
Assay: Measurement of antagonist activity using TSH-induced cAMP production in human TSHR-stably expressing CHO cells
Conditions: human TSH final concentration 50 ng/mL
pIC50: −log10 of the molar value.
metric: pIC50

compound | endpoint.value
C[C@@H]1CC[C@@H](NC(N)=O)C(=O)N1Cc1cc(C#Cc2cccnc2)ccc1F (relative stereo) | > 5.52
NC(=O)N[C@@H]1Cc2ccc(F)cc2N(Cc2cc(C(F)F)ccc2F)C1=O | > 5.52

Pending compound:
Request: Can you share its pIC50? I mean this compound: CCOC[C@@H]1CC[C@@H](NC(N)=O)C(=O)N1Cc1cc(C(F)(F)F)ccc1F
Response: > 5.52

---

Molecular target: human TSHR (Homo sapiens, UniProt P16473)
Sequence (P16473 21-764): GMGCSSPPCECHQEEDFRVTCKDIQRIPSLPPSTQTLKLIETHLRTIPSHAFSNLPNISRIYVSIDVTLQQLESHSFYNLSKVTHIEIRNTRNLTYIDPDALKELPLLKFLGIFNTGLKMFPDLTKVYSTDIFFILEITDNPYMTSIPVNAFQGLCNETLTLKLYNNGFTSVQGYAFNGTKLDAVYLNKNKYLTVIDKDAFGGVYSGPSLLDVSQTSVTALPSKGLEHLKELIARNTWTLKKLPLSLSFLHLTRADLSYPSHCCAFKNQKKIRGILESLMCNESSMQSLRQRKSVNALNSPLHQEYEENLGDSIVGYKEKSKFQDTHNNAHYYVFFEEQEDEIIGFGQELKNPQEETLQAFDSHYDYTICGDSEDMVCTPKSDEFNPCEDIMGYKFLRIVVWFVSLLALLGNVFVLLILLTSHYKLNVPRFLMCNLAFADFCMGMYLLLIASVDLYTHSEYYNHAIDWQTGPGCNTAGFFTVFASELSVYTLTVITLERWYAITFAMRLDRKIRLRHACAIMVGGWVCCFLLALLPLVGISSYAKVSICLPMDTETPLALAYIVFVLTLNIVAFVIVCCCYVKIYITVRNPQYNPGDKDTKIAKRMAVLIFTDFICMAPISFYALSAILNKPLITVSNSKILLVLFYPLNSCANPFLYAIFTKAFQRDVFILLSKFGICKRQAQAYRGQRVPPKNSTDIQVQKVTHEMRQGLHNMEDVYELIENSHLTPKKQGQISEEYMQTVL
Assay: Measurement of antagonist activity using TSH-induced cAMP production in human TSHR-stably expressing CHO cells
Settings: human TSH final concentration 50 ng/mL
Reported values of IC50 for individual entries

compound | metric | endpoint.value
NC(=O)N[C@@H]1Cc2ccc(C(=O)O)cc2N(Cc2cc(C(F)(F)F)ccc2F)C1=O [Example C-29] | IC50 | > 30 µM

Request: Suppose we examine the compound NC(=O)Nc1cc(C(F)(F)F)cn(Cc2cc(C(F)(F)F)ccc2F)c1=O [Example B-6] ; what IC50 value has been reported?
Response: < 3 µM

Request: Look up IC50 for this compound: CN(C)Cc1ccc(NC(N)=O)c(=O)n1Cc1cc(C(F)(F)F)cc(Cl)c1F [Example E-3]
Response: < 3 µM

---

Target: human TSHR (Homo sapiens, UniProt P16473)
Assay: Measurement of antagonist activity using TSH-induced cAMP production in human TSHR-stably expressing CHO cells
Conditions: human TSH final concentration 50 ng/mL
metric: IC50

# annotated cases, reported IC50 shown
smiles.data | endpoint.value
CN(C)Cc1cccc2c1N(Cc1cc(C(F)(F)F)ccc1F)C(=O)[C@H](NC(N)=O)C2 | 3 to 30 µM
Cc1ccc2c(c1)N(Cc1cccc(C(F)(F)F)c1)C(=O)[C@H](NC(N)=O)C2 | < 3 µM
COc1ccc2c(c1)N(Cc1cccc(C(F)(F)F)c1)C(=O)[C@H](NC(N)=O)C2 | < 3 µM

Request: Give its IC50 value. Item: NC(=O)N[C@@H]1Cc2cscc2N(Cc2cccc(C(F)(F)F)c2)C1=O
Response: < 3 µM

Request: Look up IC50: NC(=O)Nc1ccc(CN2CCCC2)n(Cc2cc(C(F)(F)F)ccc2F)c1=O
Response: < 3 µM

Request: What IC50 value was documented for this compound, NC(=O)N[C@@H]1CC[C@@H](CN2CCCC2)N(Cc2cc(C(F)(F)F)ccc2F)C1=O ?
Response: > 30 µM

Request: Which IC50 is listed for NC(=O)Nc1ccc(CN2CCCC2)n(Cc2cc(C(F)(F)F)cc(Cl)c2F)c1=O ?
Response: < 3 µM
